# System: expanded OPCs
# TEST PROTOCOL: cells
# ASSAY CONTEXT: alamarBlue viability of expanded OPCs, compound at 0.1 µM, relative to DMSO control
Provide the reported 0.1 µM (% DMSO) of each item.
Numbers only, in % DMSO.

compound="OC(CCN1CCCCC1)(c1ccccc1)C1CCCCC1 (stereo not shown)" outcome_measure="0.1 µM (% DMSO)" reported=90.6
compound="O.O.O=C1N=C([O-])CN1/N=C/c1ccc(-c2ccc([N+](=O)[O-])cc2)o1.[Na+] [Dantrolene sodium salt dihydrate]" outcome_measure="0.1 µM (% DMSO)" reported=93.5
compound=CCC(C)(C)C(=O)O[C@H]1C[C@@H](C)C=C2C=C[C@H](C)[C@H](CC[C@@H]3C[C@@H](O)CC(=O)O3)[C@H]21 outcome_measure="0.1 µM (% DMSO)" reported=157.3

Continue with the next compound.
Which 0.1 µM (% DMSO) is listed for "COc1c2occc2cc2ccc(=O)oc12" ? 88.8

###

# System: expanded OPCs
# TEST PROTOCOL: cells
# ASSAY CONTEXT: Rattus norvegicus, 72 h, read-out: 10 µM (% DMSO), alamarBlue viability, NCC library compound at 10 µM, sheet "All Tox data"
OUTCOME MEASURE: viability at 10 µM (%)
Answers are plain numbers, in %.

molecule="COc1ccc2[nH]c([S+]([O-])Cc3ncc(C)c(OC)c3C)nc2c1 (stereo not shown)" target_system="expanded OPCs" reported=85.8
molecule="O=C(CCNNC(=O)c1ccncc1)NCc1ccccc1 [Nialamide]" target_system="expanded OPCs" reported=91.7
molecule="CN(C)CCOC(C)(c1ccccc1)c1ccccn1 (stereo not shown)" target_system="expanded OPCs" reported=75
molecule=CC[C@]1(O)C[C@H]2CN(CCc3c([nH]c4ccccc34)[C@@](C(=O)OC)(c3cc4c(cc3OC)N(C=O)[C@H]3[C@@](O)(C(=O)OC)[C@H](OC(C)=O)[C@]5(CC)C=CCN6CC[C@]43[C@@H]65)C2)C1 target_system="expanded OPCs" reported=9
molecule="OCCOCCN1CCN(C2=Nc3ccccc3Sc3ccccc32)CC1 [Quetiapine hemifumarate]" target_system="expanded OPCs" reported=117
molecule=COc1cc(C(=O)NS(=O)(=O)c2ccccc2C)ccc1Cc1cn(C)c2ccc(NC(=O)OC3CCCC3)cc12 target_system="expanded OPCs" reported=41.9

// for each molecule in input: emit viability at 10 µM
1. CC(C)(O)c1ccccc1CC[C@@H](SCC1(CC(=O)O)CC1)c1cccc(/C=C/c2ccc3ccc(Cl)cc3n2)c1
2. CC(C)(C)NC[C@H](O)COc1nsnc1N1CCOCC1
3. CCCN(CCC)S(=O)(=O)c1ccc(C(=O)O)cc1
4. C[C@H](CS)C(=O)N1CCC[C@H]1C(=O)O
5. CN1CCC(=C2c3ccccc3C=Cc3ccccc32)CC1
6. CC(C)C[C@H](NC(=O)[C@@H](O)[C@H](N)Cc1ccccc1)C(=O)O
7. CC[C@]1(O)CC[C@H]2[C@@H]3CCC4=CCCC[C@@H]4[C@H]3CC[C@@]21C

11
92.8
91.5
99.1
25.2
123
54.2

// for each molecule in input: emit viability at 10 µM
1. CSc1ccc2c(c1)N(CCC1CCCCN1C)c1ccccc1S2 (stereo not shown)
2. [H]/N=C(/NCCCCC)N/N=C/c1c[nH]c2ccc(OC)cc12
3. CO[C@H]1/C=C/O[C@@]2(C)Oc3c(C)c(O)c4c(O)c(c5c(nc6cc(C)ccn65)c4c3C2=O)NC(=O)/C(C)=C\C=C\[C@H](C)[C@H](O)[C@@H](C)[C@@H](O)[C@@H](C)[C@H](OC(C)=O)[C@@H]1C

[9.4, 11.5, 21]
